Tested on: Arabidopsis thaliana plants
Assay: SOA1 phenotypic analysis of herbicide-treated Arabidopsis plants (MIC, Tmic, leaf traits)
Assay type: in vivo
Settings: numeric value standardized to mock treated

{"COMPOUND": "CCc1cnc(C2=NC(C)(C(C)C)C(=O)N2)c(C(=O)O)c1 (stereo not drawn)", "Dev. matureLeafNecrosis": 0}
{"COMPOUND": "COc1c(Cl)ccc(Cl)c1C(=O)O", "Dev. matureLeafNecrosis": 0}
{"COMPOUND": "CCNc1nc(Cl)nc(NC(C)C)n1", "Dev. matureLeafNecrosis": 4}
{"COMPOUND": "O=C(O)CNCP(=O)(O)O [Glyphosate]", "Dev. matureLeafNecrosis": 3}
{"COMPOUND": "CN(C)C(=O)Nc1ccc(Cl)c(Cl)c1", "Dev. matureLeafNecrosis": 4}
{"COMPOUND": "O=C(O)c1cc(Oc2ccc(C(F)(F)F)cc2Cl)ccc1[N+](=O)[O-]", "Dev. matureLeafNecrosis": 1}

* * *

System: Arabidopsis thaliana plants
Assay: SOA1 phenotypic analysis of herbicide-treated Arabidopsis plants (MIC, Tmic, leaf traits)
Assay type: in vivo
Settings: numeric value standardized to mock treated
In this section, each of the compounds is paired with its reported Dev. pointedLeaves.

{"COMPOUND": "CP(=O)(O)CCC(N)C(=O)O (centres unmarked) [Glufosinate]", "TEST SYSTEM": "Arabidopsis thaliana plants", "Dev. pointedLeaves": 1}
{"COMPOUND": "CN(C)C(=O)Nc1ccc(Cl)c(Cl)c1", "TEST SYSTEM": "Arabidopsis thaliana plants", "Dev. pointedLeaves": 1}
{"COMPOUND": "O=C(O)COc1ccc(Cl)cc1Cl", "TEST SYSTEM": "Arabidopsis thaliana plants", "Dev. pointedLeaves": 0}
{"COMPOUND": "O=C(O)c1cc(Oc2ccc(C(F)(F)F)cc2Cl)ccc1[N+](=O)[O-]", "TEST SYSTEM": "Arabidopsis thaliana plants", "Dev. pointedLeaves": 0}
{"COMPOUND": "Nc1nc[nH]n1", "TEST SYSTEM": "Arabidopsis thaliana plants", "Dev. pointedLeaves": 0}
{"COMPOUND": "CCNc1nc(Cl)nc(NC(C)C)n1", "TEST SYSTEM": "Arabidopsis thaliana plants", "Dev. pointedLeaves": 1}
{"COMPOUND": "COc1nc(C)nc(NC(=O)NS(=O)(=O)c2ccccc2Cl)n1", "TEST SYSTEM": "Arabidopsis thaliana plants", "Dev. pointedLeaves": 0}
{"COMPOUND": "COC(=O)c1cc(Oc2ccc(Cl)cc2Cl)ccc1[N+](=O)[O-]", "TEST SYSTEM": "Arabidopsis thaliana plants", "Dev. pointedLeaves": 0}
{"COMPOUND": "CCc1cnc(C2=NC(C)(C(C)C)C(=O)N2)c(C(=O)O)c1 (centres unmarked)", "TEST SYSTEM": "Arabidopsis thaliana plants", "Dev. pointedLeaves": 0}
{"COMPOUND": "c1cc[n+]2c(c1)-c1cccc[n+]1CC2", "TEST SYSTEM": "Arabidopsis thaliana plants", "Dev. pointedLeaves": 1}
{"COMPOUND": "CC(C)N1C(=O)c2ccccc2NS1(=O)=O", "TEST SYSTEM": "Arabidopsis thaliana plants", "Dev. pointedLeaves": 1}

* * *

System: Arabidopsis thaliana plants
Experiment: SOA1 phenotypic analysis of herbicide-treated Arabidopsis plants (MIC, Tmic, leaf traits)
Assay type: in vivo
Conditions: three-week-old Arabidopsis plants treated with herbicide, phenotype classes of FIG. 12
QUANTITY MEASURED: Symptom Class

{"COMPOUND": "CP(=O)(O)CCC(N)C(=O)O (stereo not drawn) [Glufosinate]", "TEST SYSTEM": "Arabidopsis thaliana plants", "MEASURED RESULT": 3}
{"COMPOUND": "CN(C)C(=O)Nc1ccc(Cl)c(Cl)c1 [Diuron]", "TEST SYSTEM": "Arabidopsis thaliana plants", "MEASURED RESULT": 7}
{"COMPOUND": "O=C(O)COc1ccc(Cl)cc1Cl [2,4-D]", "TEST SYSTEM": "Arabidopsis thaliana plants", "MEASURED RESULT": 5}
{"COMPOUND": "c1cc[n+]2c(c1)-c1cccc[n+]1CC2 [Diquat]", "TEST SYSTEM": "Arabidopsis thaliana plants", "MEASURED RESULT": 7}
{"COMPOUND": "C[n+]1ccc(-c2cc[n+](C)cc2)cc1 [Paraquat]", "TEST SYSTEM": "Arabidopsis thaliana plants", "MEASURED RESULT": 7}
{"COMPOUND": "O=C(O)CNCP(=O)(O)O [Glyphosate]", "TEST SYSTEM": "Arabidopsis thaliana plants", "MEASURED RESULT": 4}

The reported measurements were obtained from patent US20040019430A1.
